Origin of measurements: patent US12649751B2

Listed next: entries and their corresponding IC50.
Test System: UniProt:Q92918
Sequence (Q92918 whole entry, species assumed): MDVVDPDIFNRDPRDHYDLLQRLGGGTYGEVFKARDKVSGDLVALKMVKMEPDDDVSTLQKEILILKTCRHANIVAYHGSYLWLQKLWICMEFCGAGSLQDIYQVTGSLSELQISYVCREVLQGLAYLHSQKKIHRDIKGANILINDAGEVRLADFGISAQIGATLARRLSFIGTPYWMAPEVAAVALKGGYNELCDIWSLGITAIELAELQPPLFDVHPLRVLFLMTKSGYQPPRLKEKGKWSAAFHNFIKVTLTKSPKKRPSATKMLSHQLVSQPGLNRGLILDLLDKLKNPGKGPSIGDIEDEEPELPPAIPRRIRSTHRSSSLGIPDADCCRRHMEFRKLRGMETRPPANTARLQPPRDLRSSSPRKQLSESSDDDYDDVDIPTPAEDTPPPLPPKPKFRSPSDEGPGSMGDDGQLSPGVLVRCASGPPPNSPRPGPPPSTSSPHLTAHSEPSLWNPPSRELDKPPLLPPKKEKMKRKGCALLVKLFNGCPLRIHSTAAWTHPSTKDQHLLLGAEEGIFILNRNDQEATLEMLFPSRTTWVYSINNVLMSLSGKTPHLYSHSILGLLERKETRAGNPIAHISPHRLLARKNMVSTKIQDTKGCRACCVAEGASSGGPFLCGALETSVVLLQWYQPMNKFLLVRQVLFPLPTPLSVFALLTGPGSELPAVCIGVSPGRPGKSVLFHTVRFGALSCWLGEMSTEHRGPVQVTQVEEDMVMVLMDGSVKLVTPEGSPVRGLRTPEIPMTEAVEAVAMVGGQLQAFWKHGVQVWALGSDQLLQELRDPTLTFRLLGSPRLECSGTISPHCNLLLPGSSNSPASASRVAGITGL
Assay Name: HPK1 Biochemical Assay (ADP-Glo luminescence; low ATP 10 μM or high ATP 200 μM)
Experimental Conditions: 2 nM HPK1, 10 μM ATP; read-out: Biochemical Potency (low ATP)

INSERT INTO results (chemical_string, result_type, observed) VALUES
  ('CNC(=O)c1cccc(-c2nc3cc(Nc4cccc(N5C[C@@H]6C[C@H]5CN6C)n4)ncc3s2)c1', 'IC50', '< 100 nM'),
  ('c1cc(C2CCOCC2)c(CN2CCCC2)nc1Nc1cc2nc(N3CCCC3)sc2cn1', 'IC50', '100 to 1000 nM'),
  ('COc1cccc(F)c1-c1nc2cc(Nc3cccc(N4CCN(C)CC4)n3)ncc2s1', 'IC50', '< 100 nM');

Exercise: Please supply the value of reported IC50 for the item `Cc1ccnn1-c1nc2cc(Nc3cccc(N4C[C@@H]5C[C@H]4CN5C)n3)ncc2s1`
Solution: < 100 nM
